These entries and their values trace back to patent US6414147B1.

Each entry below carries its recorded melting point.

Worked examples follow.
1) CCCCn1cnc2c(OCC)nc(Nc3ccc(C)cc3C)nc21 [compound 51]; 97 to 99 °C
2) C=C(C)COc1nc(Nc2ccc(OCC)nc2)nc2c1ncn2CCC [compound 77]; 112 to 114 °C
3) CCCCn1cnc2c(OCCOC(C)C)nc(Nc3ccc(F)cc3)nc21 [compound 29]; 116 to 118 °C
4) CCCn1cnc2c(Oc3ccccc3)nc(Nc3ccc(OC)nc3)nc21 [compound 66]; 188 to 190 °C
5) CCCCn1cnc2c(OCCF)nc(Nc3ccc(OC)nc3)nc21 [compound 58]; 163 to 164 °C
6) CCCCn1cnc2c(OCCC)nc(Nc3ccccc3)nc21 [compound 4]; 115 to 116 °C

Task: Would you kindly share the measured melting point for CCCCn1cnc2c(Oc3cccnc3)nc(Nc3ccc(F)cc3)nc21.CS(=O)(=O)O [compound 37] ?
Result: > 300 °C

Task: Would you kindly share the measured melting point for CCCCn1cnc2c(OCc3cccs3)nc(Nc3ccc(OCC)nc3)nc21 [compound 76] ?
Result: 116 to 118 °C

Task: Would you kindly share the measured melting point for COc1nc(Nc2ccccc2)nc2c1ncn2CCCO [compound 21] ?
Result: 90 to 94 °C

Task: Would you kindly share the measured melting point for CCCCn1cnc2c(OC)nc(Nc3ccc(F)cc3)nc21 [compound 27] ?
Result: 185 to 187 °C

Task: Would you kindly share the measured melting point for CCCCn1cnc2c(OCCC)nc(Nc3cnc4ccccc4c3)nc21 [compound 87] ?
Result: 215 to 220 °C

Task: Would you kindly share the measured melting point for CCCCn1cnc2c(OCCOC)nc(Nc3ccc(F)cc3)nc21 [compound 28] ?
Result: 165 to 166 °C

Task: Would you kindly share the measured melting point for CCCCn1cnc2c(OC)nc(Nc3ccccc3)nc21 [compound 2] ?
Result: 172 to 174 °C

Task: Would you kindly share the measured melting point for CCCCn1cnc2c(OCCOCCC)nc(Nc3ccc(F)cc3)nc21 [compound 30] ?
Result: 149 to 150 °C
